FYI, the data here is from patent US20240261417A1.

# Tgt: SOS1 protein (Homo sapiens)
# Experiment: SOS1 degradation assay (Western blot), NCI-H358 cells
# Type: cell-based
# Design: The degradation of SOS1 by the compounds was investigated on KRAS G12C mutant human non-small cell lung cancer cells NCI-H358; host or cells: NCI-H358 (human cancer cell lines)
# Assay Conditions: SOS1 degradation, NCI-H358 cells, 24 h, Western blot; read-out: NCI-H358 (G12C) DC50
Reported Metric: DC50

Incoming: # get_value(readout='DC50', item= COc1cc2nc(C)nc(N[C@H](C)c3cccc4c3CCS4(=O)=O)c2cc1[C@H]1CC[C@H](C(=O)N2CCN(CC3CCC4(CC3)CCN(C(=O)c3ccc(Cl)c(N5CCC(=O)NC5=O)c3)CC4)CC2)CC1 [Example 10] )
Outgoing: < 50 nM

Incoming: # get_value(readout='DC50', item= COc1cc2nc(C)nc(N[C@H](C)c3cc(N)cc(C(F)(F)F)c3)c2cc1C1=CCC(C(=O)N2CCN(CCOCC3CCN(C(=O)c4ccc(Cl)c(N5CCC(=O)NC5=O)c4)CC3)CC2)CC1 (stereo partly drawn) [Example 53] )
Outgoing: < 50 nM

---

# Tgt: KRAS-G12C/SOS1 (Homo sapiens)
# Experiment: KRAS-G12C/SOS1 binding assay (HTRF)
# Assay Conditions: inhibition of KRAS-G12C/SOS1 binding
# Experimental: The following method was used to determine the extent of inhibition of KRAS-G12C/SOS1 binding by the preferred compounds of the present invention under in vitro conditions. In this method, the competitive inhibition of KRAS-G12C/SOS1 binding by the preferred compounds was assayed by the homogeneous time-resolved fluorescence (HTRF) technology using the KRAS-G12C/SOS1 binding assay kit (Cisbio, 63ADKOOOCB16PEG). […]
Reported Metric: IC50

Known IC50 results, listed for orientation:
[[record]]
compound = "COc1cc2nc(C)nc(N[C@H](C)c3cc(-c4c(Cl)cccc4CN(C)C)cs3)c2cc1[C@H]1CC[C@H](C(=O)N2CCC(CCCC3CCN(C(=O)c4ccc(Cl)c(N5CCC(=O)NC5=O)c4)CC3)CC2)CC1 [Example 79]"
tgt = "KRAS-G12C/SOS1 (Homo sapiens)"
reported_metric = "IC50"
result = "≤ 15 nM"

[[record]]
compound = "COc1cc2nc(C)nc(N[C@H](C)c3cc(N)cc(C(F)(F)F)c3)c2cc1C1=CCC(C(=O)N2CCN(CC3CCC4(CC3)CCN(C(=O)c3ccc(Cl)c(N5CCC(=O)NC5=O)c3)CC4)CC2)CC1 (stereo partly drawn) [Example 51]"
tgt = "KRAS-G12C/SOS1 (Homo sapiens)"
reported_metric = "IC50"
result = "≤ 15 nM"


Incoming: # get_value(readout='IC50', item= COc1cc2nc(C)nc(N[C@H](C)c3cc(-c4c(Cl)cccc4CN(C)C)cs3)c2cc1[C@H]1CC[C@H](C(=O)N2CCN(CCCCC3CCN(C(=O)c4ccc(Cl)c(N5CCC(=O)NC5=O)c4)CC3)CC2)CC1 [Example 71] )
Outgoing: ≤ 15 nM

---

Overview of recorded Dmax for various compounds
# Tgt: SOS1 protein (Homo sapiens, UniProt Q07889)
# Sequence (Q07889 1-1333): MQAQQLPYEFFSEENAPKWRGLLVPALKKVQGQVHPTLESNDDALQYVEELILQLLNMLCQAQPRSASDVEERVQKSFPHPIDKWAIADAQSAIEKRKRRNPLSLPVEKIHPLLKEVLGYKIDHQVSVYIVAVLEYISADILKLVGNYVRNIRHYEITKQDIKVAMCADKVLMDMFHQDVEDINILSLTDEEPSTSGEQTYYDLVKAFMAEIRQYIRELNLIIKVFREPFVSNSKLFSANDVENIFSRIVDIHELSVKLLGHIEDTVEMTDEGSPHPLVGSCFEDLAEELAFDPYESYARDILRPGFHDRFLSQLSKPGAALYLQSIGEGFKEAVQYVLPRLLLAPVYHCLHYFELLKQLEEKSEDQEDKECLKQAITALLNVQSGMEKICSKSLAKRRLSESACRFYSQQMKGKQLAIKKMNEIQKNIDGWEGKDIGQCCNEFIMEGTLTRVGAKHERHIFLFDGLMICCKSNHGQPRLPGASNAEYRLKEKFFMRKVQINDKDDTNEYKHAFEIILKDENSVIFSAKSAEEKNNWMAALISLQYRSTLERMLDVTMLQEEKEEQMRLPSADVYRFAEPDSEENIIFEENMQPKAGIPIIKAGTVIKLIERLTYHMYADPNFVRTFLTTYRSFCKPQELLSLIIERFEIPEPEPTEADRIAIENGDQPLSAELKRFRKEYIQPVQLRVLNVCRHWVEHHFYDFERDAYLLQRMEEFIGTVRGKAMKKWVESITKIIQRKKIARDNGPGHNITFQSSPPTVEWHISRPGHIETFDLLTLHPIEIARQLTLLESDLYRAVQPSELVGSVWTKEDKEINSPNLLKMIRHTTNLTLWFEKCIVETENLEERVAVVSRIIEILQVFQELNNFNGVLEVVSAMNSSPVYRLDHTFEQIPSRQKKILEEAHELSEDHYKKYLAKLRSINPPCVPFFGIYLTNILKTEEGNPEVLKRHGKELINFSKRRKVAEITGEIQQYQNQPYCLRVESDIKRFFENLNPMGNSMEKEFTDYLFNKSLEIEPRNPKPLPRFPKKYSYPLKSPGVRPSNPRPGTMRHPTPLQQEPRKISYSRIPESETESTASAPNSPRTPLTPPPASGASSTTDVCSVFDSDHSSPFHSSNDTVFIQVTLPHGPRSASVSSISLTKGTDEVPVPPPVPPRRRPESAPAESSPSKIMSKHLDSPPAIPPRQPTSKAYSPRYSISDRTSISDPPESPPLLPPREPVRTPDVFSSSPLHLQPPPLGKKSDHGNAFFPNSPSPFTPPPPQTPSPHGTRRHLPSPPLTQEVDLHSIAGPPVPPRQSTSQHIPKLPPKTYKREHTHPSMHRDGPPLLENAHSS
# Experiment: SOS1 degradation assay (Western blot), NCI-H358 cells
# Type: cell-based
# Design: The degradation of SOS1 by the compounds was investigated on KRAS G12C mutant human non-small cell lung cancer cells NCI-H358; host or cells: NCI-H358 (human cancer cell lines)
# Assay Conditions: SOS1 degradation, NCI-H358 cells, 24 h, Western blot; read-out: NCI-H358 (G12C) Dmax

Incoming: # get_value(readout='Dmax', item= CNCc1ccccc1-c1csc([C@@H](C)Nc2nc(C)nc3cc(OC)c([C@H]4CC[C@H](C(=O)N5CCN(CC6CCC7(CC6)CCN(C(=O)c6ccc(F)c(N8CCC(=O)NC8=O)c6)CC7)CC5)CC4)cc23)c1 )
Outgoing: 80 to 100%

Incoming: # get_value(readout='Dmax', item= COc1cc2nc(C)nc(N[C@H](C)c3cc(-c4c(Cl)cccc4CN(C)C)cs3)c2cc1[C@H]1CC[C@H](C(=O)N2CCC(CCCCN3CCN(C(=O)c4ccc(Cl)c(N5CCC(=O)NC5=O)c4)CC3)CC2)CC1 )
Outgoing: 80 to 100%

Incoming: # get_value(readout='Dmax', item= COc1cc2nc(C)nc(N[C@H](C)c3cc(N)cc(C(F)(F)F)c3)c2cc1[C@H]1CC[C@H](C(=O)N2CCC(CCN(C)CC3CCN(C(=O)c4ccc(Cl)c(N5CCC(=O)NC5=O)c4)CC3)CC2)CC1 )
Outgoing: < 30%

Incoming: # get_value(readout='Dmax', item= [2H]C([2H])(OCC1CCN(C(=O)[C@H]2CC[C@H](c3cc4c(N[C@H](C)c5cc(N)cc(C(F)(F)F)c5)nc(C)nc4cc3OC)CC2)CC1)C1CCN(C(=O)c2ccc(Cl)c(N3CCC(=O)NC3=O)c2)CC1 )
Outgoing: 50 to 80%

Incoming: # get_value(readout='Dmax', item= COc1cc2nc(C)nc(N[C@H](C)c3cc(N)cc(C(F)(F)F)c3)c2cc1O[C@H]1CC[C@H](C(=O)N2CCN(CC3CCC4(CC3)CCN(C(=O)c3ccc(Cl)c(N5CCC(=O)NC5=O)c3)CC4)CC2)CC1 )
Outgoing: < 30%

Incoming: # get_value(readout='Dmax', item= COc1cc2nc(C)nc(N[C@H](C)c3cc(N)cc(C(F)(F)F)c3)c2cc1[C@H]1CC[C@H](C(=O)N2CCN(CC3CCC4(CC3)CCN(C(=O)c3ccc(N5CCC(=O)NC5=O)cc3)CC4)CC2)CC1 )
Outgoing: 30 to 50%

Incoming: # get_value(readout='Dmax', item= COc1cc2nc(C)nc(N[C@H](C)c3cc(N)cc(C(F)(F)F)c3)c2cc1C1CCN(C(=O)C2CCN(CC3CCC4(CC3)CCN(C(=O)c3ccc(Cl)c(N5CCC(=O)NC5=O)c3)CC4)CC2)CC1 )
Outgoing: 30 to 50%

Incoming: # get_value(readout='Dmax', item= COc1cc2nc(C)nc(N[C@H](C)c3cc(-c4c(Cl)cccc4CN(C)C)cs3)c2cc1[C@H]1CC[C@H](C(=O)N2CCC(OCCCC3CCN(C(=O)c4ccc(Cl)c(N5CCC(=O)NC5=O)c4)CC3)CC2)CC1 )
Outgoing: 50 to 80%

Incoming: # get_value(readout='Dmax', item= COc1cc2nc(C)nc(N[C@H](C)c3cc(NC(C)=O)cc(C(F)(F)F)c3)c2cc1[C@H]1CC[C@H](C(=O)N2CCN(CC3CCC4(CC3)CCN(C(=O)c3ccc(Cl)c(N5CCC(=O)NC5=O)c3)CC4)CC2)CC1 )
Outgoing: 30 to 50%

Incoming: # get_value(readout='Dmax', item= COc1cc2nc(C)nc(N[C@H](C)c3cc(N)cc(C(F)(F)F)c3)c2cc1[C@H]1CC[C@H](C(=O)N2CCN(CCCC3CCN(C(=O)c4ccc(Cl)c(N5CCC(=O)NC5=O)c4)CC3)CC2)CC1 )
Outgoing: 30 to 50%

Incoming: # get_value(readout='Dmax', item= COc1cc2nc(C)nc(N[C@H](C)c3cc(N)cc(C(F)(F)F)c3)c2cc1C1=CCC(C(=O)N2CCC(CCOCC3CCN(C(=O)c4ccc(Cl)c(N5CCC(=O)NC5=O)c4)CC3)CC2)CC1 (stereo partly drawn) )
Outgoing: 50 to 80%

Incoming: # get_value(readout='Dmax', item= COc1cc2nc(C)nc(N[C@H](C)c3cc(N)cc(C(F)(F)F)c3)c2cc1C1=CCC(C(=O)N2CCN(CCOCC3CCN(C(=O)c4ccc(Cl)c(N5CCC(=O)NC5=O)c4)CC3)CC2)CC1 (stereo partly drawn) )
Outgoing: 50 to 80%

Incoming: # get_value(readout='Dmax', item= COc1cc2nc(C)nc(N[C@H](C)c3cc(N)cc(C(F)(F)F)c3)c2cc1[C@H]1CC[C@H](C(=O)N2CCC(CC3CCC4(CC3)CCN(C(=O)c3ccc(Cl)c(N5CCC(=O)NC5=O)c3)CC4)CC2)CC1 )
Outgoing: 80 to 100%

Incoming: # get_value(readout='Dmax', item= COc1ccc(C(=O)N2CCC(COCCC3CCN(C(=O)[C@H]4CC[C@H](c5cc6c(N[C@H](C)c7cc(N)cc(C(F)(F)F)c7)nc(C)nc6cn5)CC4)CC3)CC2)cc1N1CCC(=O)NC1=O )
Outgoing: 50 to 80%

Incoming: # get_value(readout='Dmax', item= COc1cc2nc(C)nc(N[C@H](C)c3cc(-c4c(Cl)cccc4CN(C)C)cs3)c2cc1[C@H]1CC[C@H](C(=O)N2CCN(CCCOC3CCN(C(=O)c4ccc(Cl)c(N5CCC(=O)NC5=O)c4)CC3)CC2)CC1 )
Outgoing: 50 to 80%
